Parameter: Binding affinity (RU). Scope: all listed entries.
# studySystem: acetylcholine receptor
# testProtocol: SPR, receptor immobilized, peptide 10 uM
Output spec: scalar in RU, unitless text.

INSERT INTO assay_data (binder, valueobserved) VALUES
  ('KKVYCK [6mer-1-176]', 121),
  ('KDTEKK [6mer-2-881]', 33),
  ('KPPERR [6mer-2-877]', 17),
  ('KHTGRR [6mer-2-853]', 29),
  ('KNTMKR [6mer-2-836]', 26);

Task: Please supply the value of reported Binding affinity (RU) for the item REMIKR [6mer-2-855]
Result: 19

Task: Please supply the value of reported Binding affinity (RU) for the item RNDWR [5mer-1052]
Result: 17

Task: Please supply the value of reported Binding affinity (RU) for the item RTHDR [5mer-1084]
Result: 21

Task: Please supply the value of reported Binding affinity (RU) for the item REDWRK [6mer-2-823]
Result: 25

Task: Please supply the value of reported Binding affinity (RU) for the item KFWWRR [6mer-2-851]
Result: 19

Task: Please supply the value of reported Binding affinity (RU) for the item KRGYRR [6mer-1-177]
Result: 121

Task: Please supply the value of reported Binding affinity (RU) for the item KCDFK [5mer-758]
Result: 30
